value type: melting point

Inquiry: Field request: melting point | item: `Cc1ccc(NC(=O)C(C)(C)C)c(-c2cncc(Cl)n2)c1`
Reply text: 80 to 83 °C

Inquiry: So what does the record say about melting point for `Cn1nc(CO)cc1-c1ccccc1` ?
Reply text: 95 to 99 °C

Inquiry: I'd like to know its melting point. The molecule in question is `CC(=O)Nc1ccc(O)cc1F`
Reply text: 124 °C

Continuing:
Inquiry: Looking for the measured melting point of `CCCc1nc2c(C)ccnc2n1Cc1ccc(-c2ccncc2-c2nnn[nH]2)cc1` , can you help?
Reply text: 110 to 112 °C

Inquiry: Reported melting point for Oc1ccc(OCC(O)CNCCNc2cccc3[nH]ncc23)cc1 (stereo not given) : what is it?
Reply text: 151 to 153 °C

Inquiry: Requested read-out: melting point. Entry: `CSSc1ccc([N+](=O)[O-])cc1C(Cl)(Cl)Cl`
Reply text: 76 °C

Inquiry: Using the record for `N#Cc1ccc(COCCn2cnc3c(N)nc4ccccc4c32)cc1` , report its melting point.
Reply text: 238 to 239 °C

Inquiry: Any idea what its melting point is? The molecule is `CC(C)Sc1nc(C(F)(F)F)c(I)c(=O)[nH]1`
Reply text: 212 to 215 °C

Inquiry: Recorded melting point for `Cc1cccc(C)c1C(=O)N1C(=O)CN(c2ccccc2)C1=O` , please?
Reply text: 135 to 137 °C

Inquiry: Param item = `COC(=O)C=Cc1cccc(NC(=O)c2cccn2C)c1` ; retrieve measured melting point.
Reply text: 89 to 90 °C

Inquiry: Could you share which melting point value was measured for `O=Cc1ccc(-c2cccc(-c3ccc(OC(F)(F)F)cc3)n2)cc1` ?
Reply text: 109 to 112 °C

Inquiry: So what does the record say about melting point for `COc1ccc(C(=O)Nc2nc(C)c(C(=O)NCc3ccccc3)s2)cc1` ?
Reply text: 203 to 204 °C

Inquiry: Field request: melting point | item: `O=c1c(N2CCNCC2)nccn1CCOc1cc(F)cc(F)c1`
Reply text: 119 to 121 °C

Inquiry: Looking for the measured melting point of OC1c2cc(OCc3ccc4ccccc4n3)ccc2OCC1Cc1c[nH]c2ccccc12 (stereo not given) , can you help?
Reply text: 60 °C

Inquiry: What melting point value was documented for this molecule, `O=S(=O)(NCc1cccnc1)c1ccc(Br)s1` ?
Reply text: 125 °C

Inquiry: Which melting point value belongs to `CC(=O)Nc1nc(CCc2ccc(NC(=O)OC(C)(C)C)cc2)c(C(=O)Nc2ccccc2)s1` ?
Reply text: 199 to 200 °C

Inquiry: // query melting point value for entry `O=C(Nc1ccccc1C(c1ccc(O)cc1)c1ccc(O)cc1)c1ccc([N+](=O)[O-])cc1`
Reply text: 258 to 259 °C

Inquiry: What does the record list as melting point for `Cc1ccc2cccc(OCc3c(Cl)ccc(S(=O)(=O)N(C)C(C)(C)C)c3Cl)c2n1` ?
Reply text: 160 to 162 °C

Inquiry: # input molecule: `CN(Cc1ccccc1CC(=O)O)C(=O)OC(C)(C)C` ; wanted: its melting point
Reply text: 96 to 98 °C

Inquiry: Report melting point for `Cc1ccc(-c2ccc(C(=O)Nc3ccc4cc(CN5CCCCCC5)cnc4c3)cc2)cc1` please.
Reply text: 209 °C

Inquiry: Look at this molecule and give its reported melting point. `COc1cc(N2CCN(C)CC2)ccc1-c1nc2c(N[C@H]3[C@@H](C(N)=O)[C@@H]4C=C[C@H]3C4)ccnc2[nH]1`
Reply text: 185 to 195 °C
